Tested on: β2-adrenergic receptor
Assay: β-adrenergic receptor density in lung membranes of treated asthmatic mice by ICYP radioligand binding
Assay type: in vivo
Conditions: 2 days of administration
Experimental: β2-adrenergic receptor numbers were measured in asthmatic mice as follows. […] Mice were sacrificed and lung membranes were isolated as follows. […] The final pellet was suspended in 200 μL of 25 mM Tris-HCl (pH 7.4); membrane protein concentration was determined by BCA protein assay kit. […] The filters were washed three times with 250 μL of cold wash buffer (25 mM Tris-HCl, pH 7.4) and the radioactivity determined in a counter. […] Bmax is determined by nonlinear regression of the saturation binding curves.

compound: COc1ccccc1OCCNCC(O)COc1cccc2[nH]c3ccccc3c12 (stereo not shown)
tested.on: β2-adrenergic receptor
Increased β2AR density: no
//
compound: CC(C)(C)NCC(O)c1ccc(O)c(CO)c1 (stereo not shown)
tested.on: β2-adrenergic receptor
Increased β2AR density: no
//
compound: CC(C)(C)NCC(O)COc1cccc2c1CC(O)C(O)C2 (stereo not shown)
tested.on: β2-adrenergic receptor
Increased β2AR density: yes
//
compound: C=CCc1ccccc1OCC(O)CNC(C)C (stereo not shown)
tested.on: β2-adrenergic receptor
Increased β2AR density: no

----------
target: β2-adrenergic receptor (Mus musculus, UniProt P18762)
Sequence (P18762 whole entry): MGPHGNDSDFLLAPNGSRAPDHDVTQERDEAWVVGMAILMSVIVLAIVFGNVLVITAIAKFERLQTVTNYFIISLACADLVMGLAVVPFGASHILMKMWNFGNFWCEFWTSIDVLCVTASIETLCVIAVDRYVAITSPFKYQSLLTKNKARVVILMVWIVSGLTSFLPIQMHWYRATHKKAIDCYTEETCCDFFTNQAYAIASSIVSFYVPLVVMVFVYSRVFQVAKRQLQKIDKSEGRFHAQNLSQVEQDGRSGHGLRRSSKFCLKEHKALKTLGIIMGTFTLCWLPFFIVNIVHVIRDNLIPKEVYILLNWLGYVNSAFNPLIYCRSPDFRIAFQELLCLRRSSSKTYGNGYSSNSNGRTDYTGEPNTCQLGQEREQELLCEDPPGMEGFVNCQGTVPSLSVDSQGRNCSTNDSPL
value.kind: Kd (pM)
Enter your answer as a number in pM; do not include the unit.

Query string: Identify Kd associated with the molecule CC(C)(C)NCC(O)c1ccc(O)c(CO)c1 (stereo not shown)
Result string: 225
